systemName: ATP-dependent translocase ABCB1 (Homo sapiens, UniProt P08183);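 further: Compound-stimulated ATPase activity measured in membrane preparations of MDR1-expressing Sf9 cells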
Sequence (P08183 whole entry): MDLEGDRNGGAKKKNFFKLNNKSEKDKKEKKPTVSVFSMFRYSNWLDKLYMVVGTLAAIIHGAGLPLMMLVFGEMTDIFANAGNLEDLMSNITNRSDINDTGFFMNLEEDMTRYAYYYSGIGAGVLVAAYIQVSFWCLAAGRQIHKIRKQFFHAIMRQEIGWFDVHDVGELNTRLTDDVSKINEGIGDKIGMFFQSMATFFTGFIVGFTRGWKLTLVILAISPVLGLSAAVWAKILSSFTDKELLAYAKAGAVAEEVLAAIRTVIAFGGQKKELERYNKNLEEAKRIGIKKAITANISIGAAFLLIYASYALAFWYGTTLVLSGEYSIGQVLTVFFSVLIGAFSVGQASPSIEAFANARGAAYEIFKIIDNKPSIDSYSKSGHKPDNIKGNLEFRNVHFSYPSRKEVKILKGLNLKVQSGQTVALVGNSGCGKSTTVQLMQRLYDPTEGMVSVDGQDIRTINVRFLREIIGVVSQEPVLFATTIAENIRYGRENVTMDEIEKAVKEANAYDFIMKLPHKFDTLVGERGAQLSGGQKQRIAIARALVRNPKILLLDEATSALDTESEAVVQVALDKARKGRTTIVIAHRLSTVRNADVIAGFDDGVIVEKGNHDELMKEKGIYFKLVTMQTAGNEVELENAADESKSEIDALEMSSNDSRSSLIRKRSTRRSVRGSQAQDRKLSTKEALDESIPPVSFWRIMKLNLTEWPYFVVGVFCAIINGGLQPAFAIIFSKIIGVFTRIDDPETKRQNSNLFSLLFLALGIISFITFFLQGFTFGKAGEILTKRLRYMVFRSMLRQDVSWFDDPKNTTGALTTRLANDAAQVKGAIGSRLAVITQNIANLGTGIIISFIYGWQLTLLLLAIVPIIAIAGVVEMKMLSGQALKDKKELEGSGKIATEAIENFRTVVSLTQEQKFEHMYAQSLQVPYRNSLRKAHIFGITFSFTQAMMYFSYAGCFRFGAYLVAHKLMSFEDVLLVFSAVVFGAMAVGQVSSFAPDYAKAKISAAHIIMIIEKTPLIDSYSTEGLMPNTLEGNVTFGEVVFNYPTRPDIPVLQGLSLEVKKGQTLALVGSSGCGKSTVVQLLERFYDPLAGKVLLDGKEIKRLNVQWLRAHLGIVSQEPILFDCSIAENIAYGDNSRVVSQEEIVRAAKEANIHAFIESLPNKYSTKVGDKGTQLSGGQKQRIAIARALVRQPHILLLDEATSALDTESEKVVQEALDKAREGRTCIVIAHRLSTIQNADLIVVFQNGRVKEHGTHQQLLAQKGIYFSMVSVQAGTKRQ
conditions: spodoptera frugiperda, sf9, 20 µM
Description: Drug-stimulated Pgp ATPase activity ratio determined in MDR1-Sf9 cell membranes with test compound at a concentration of 20uM
recordedMetric: Ratio_ATPase activity

Example entries begin here.
INSERT INTO assay_data (compound, endpointresult) VALUES
  ('CC(C)(C)NC(=O)[C@@H]1CN(Cc2cccnc2)CCN1C[C@@H](O)C[C@@H](Cc1ccccc1)C(=O)N[C@H]1c2ccccc2C[C@H]1O.O', 9.59),
  ('COc1cccc2c1C(=O)c1c(O)c3c(c(O)c1C2=O)C[C@@](O)(C(C)=O)C[C@@H]3O[C@H]1C[C@H](N)[C@H](O)[C@H](C)O1 [DAUNORUBICIN]', 1.69),
  ('COc1cc(Cc2cnc(N)nc2N)cc(OC)c1OC [TRIMETHOPRIM]', 3.61);

Quick request: Ratio_ATPase activity for each listed item, please.
1. CN(C)C(=O)Oc1ccc[n+](C)c1 [PYRIDOSTIGMINE]
2. CCN(CC)CCCC(C)Nc1ccnc2cc(Cl)ccc12 (stereo not drawn) [CHLOROQUINE]

OUTPUT:
1. 0.89
2. 0.77

Quick request: Ratio_ATPase activity for each listed item, please.
1. OC[C@@H](O)[C@@H](O)[C@H](O)[C@H](O)CO [MANNITOL]
2. Cc1c(O)cccc1C(=O)N[C@@H](CSc1ccccc1)[C@H](O)CN1C[C@H]2CCCC[C@H]2C[C@H]1C(=O)NC(C)(C)C
3. Nc1nc(N)c2nc(-c3ccccc3)c(N)nc2n1

OUTPUT:
1.25
5.21
1.12
